The reported numbers originate from patent US10144737B2.

ASSAY_SYSTEM: Btk (Homo sapiens, UniProt Q06187)
Construct: purchased Promega (Madison, Wis.)
Sequence (Q06187 whole entry): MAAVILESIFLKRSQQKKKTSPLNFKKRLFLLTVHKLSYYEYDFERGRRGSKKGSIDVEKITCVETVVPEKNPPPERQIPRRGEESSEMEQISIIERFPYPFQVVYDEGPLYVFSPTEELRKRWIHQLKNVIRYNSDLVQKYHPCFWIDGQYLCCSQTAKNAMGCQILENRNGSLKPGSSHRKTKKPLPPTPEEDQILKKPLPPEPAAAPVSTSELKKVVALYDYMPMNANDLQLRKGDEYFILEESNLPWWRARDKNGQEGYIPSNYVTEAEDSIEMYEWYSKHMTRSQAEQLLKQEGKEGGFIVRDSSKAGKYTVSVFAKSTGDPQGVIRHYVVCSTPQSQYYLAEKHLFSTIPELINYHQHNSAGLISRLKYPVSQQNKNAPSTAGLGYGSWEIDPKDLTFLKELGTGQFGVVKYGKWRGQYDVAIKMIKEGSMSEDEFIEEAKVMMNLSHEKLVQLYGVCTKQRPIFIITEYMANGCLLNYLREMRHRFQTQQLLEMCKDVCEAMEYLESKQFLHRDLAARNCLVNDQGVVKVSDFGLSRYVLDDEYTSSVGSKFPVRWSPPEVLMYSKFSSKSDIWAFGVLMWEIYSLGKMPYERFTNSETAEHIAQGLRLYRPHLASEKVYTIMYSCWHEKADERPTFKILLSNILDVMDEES
EXPERIMENT_SUMMARY: Btk kinase assay (ADP-Glo)
Type: biochemical
ASSAY_CONDITIONS: ADP-Glo Btk kinase assay kit; ATP 1.2 μM; 60 minutes at room temperature

CHEMICAL_STRING | IC50 / µM
C=CC(=O)N1CC[C@@H](Nc2ncnc3[nH]c(C#Cc4cccs4)cc23)C1 | 0.03
C=CC(=O)N1CC[C@@H](Nc2ncnc3[nH]c(C#Cc4ccccc4OC)cc23)C1 | 0.742
CC#CC(=O)N1CC[C@@H](Nc2ncnc3[nH]c(C#CCOc4ccccc4F)cc23)C1 | 0.136
C=CC(=O)N1CC[C@@H](Nc2ncnc3[nH]c(C#Cc4ccccc4F)cc23)C1 | 0.018

----------
Test system: TMD-8 cells
EXPERIMENT_SUMMARY: Cell proliferation assay (CellTiter-Glo), TMD-8 cells
Assay type: cell-based
ASSAY_CONDITIONS: Homo sapiens, TMD8, 120 h, 5-day treatment, read-out: TMD8 cell growth (GI50 μM)
Measured GI50 accompanies every entry in the list below.

COMPOUND | UNIT_OF_MEASUREMENT | GI50
C=CC(=O)N1CCC(Nc2ncnc3[nH]c(C#CCOc4ccccc4F)nc23)C1 (centres unmarked) | µM | 0.003
O=C(/C=C/CN1CCOCC1)N1CCN(c2ncnc3[nH]c(C#CCOc4ccccc4)nc23)CC1 | µM | 0.357
C/C=C/C(=O)N1CC[C@@H](Nc2ncnc3[nH]c(C#CCOc4ccccc4F)cc23)C1 | µM | 0.088
COc1ccccc1OCC#Cc1nc2c(NC3CCN(C(=O)/C=C/CN(C)C)C3)ncnc2[nH]1 (centres unmarked) | µM | 0.082
CN(C)C/C=C/C(=O)N1CC[C@@H](Nc2ncnc3[nH]c(C#CCOc4ccccc4)cc23)C1 | µM | 0.069

----------
ASSAY_SYSTEM: Btk (Homo sapiens)
Construct: purchased Promega (Madison, Wis.)
EXPERIMENT_SUMMARY: Btk kinase assay (ADP-Glo)
Format: biochemical
ASSAY_CONDITIONS: ADP-Glo Btk kinase assay kit; ATP 1.2 μM; 60 minutes at room temperature

COMPOUND | IC50
C=CC(=O)N1CC[C@@H](Nc2ncnc3[nH]c(C#Cc4ccc5c(c4)OCO5)cc23)C1 [Example 72] | 0.0035 µM
CNC/C=C/C(=O)N1CCN(c2ncnc3[nH]c(C#CCOc4ccccc4)cc23)CC1 [Example 3] | 0.0023 µM
COc1ccc(OCC#Cc2nc3c(NC4CCN(C(=O)/C=C/CN(C)C)C4)ncnc3[nH]2)cc1 (stereo not drawn) [Example 30] | 0.019 µM
C=CC(=O)N1CC[C@@H](Nc2ncnc3[nH]c(C#CCOc4c(F)cccc4OC)cc23)C1 [Example 88] | 0.018 µM
C=CC(=O)N1CC[C@@H](Nc2ncnc3[nH]c(C#Cc4ccoc4)cc23)C1 [Example 79] | 0.002 µM
C=CC(=O)N1CCC(Nc2ncnc3[nH]c(C#CCOc4ccc(Cl)cc4)nc23)C1 (stereo not drawn) [Example 19] | 0.022 µM
C=CC(=O)N1CC[C@@H](Nc2ncnc3[nH]c(C#Cc4cccc(C)c4)cc23)C1 [Example 69] | 0.182 µM
C=CC(=O)N1CC[C@@H](Nc2ncnc3[nH]c(C#CCOc4ccccc4C#N)cc23)C1 [Example 82] | 0.038 µM
CN(C)C/C=C/C(=O)N1CCC(Nc2ncnc3[nH]c(C#CCOc4ccccc4F)nc23)C1 (stereo not drawn) [Example 23] | 0.0015 µM
C=CC(=O)N1CCC(Nc2ncnc3[nH]c(C#CCOc4cccc(OC)c4)nc23)C1 (stereo not drawn) [Example 26] | 0.0065 µM
C=CC(=O)N1CC[C@@H](Nc2ncnc3[nH]c(C#CCOc4cccc(F)c4F)cc23)C1 [Example 91] | 0.008 µM
C=CC(=O)N1CC[C@@H](Nc2ncnc3[nH]c(C#Cc4ccsc4)cc23)C1 [Example 76] | 0.001 µM
CN(C)C/C=C/C(=O)N1CC[C@@H](Nc2ncnc3[nH]c(C#CCOc4ccccc4Cl)cc23)C1 [Example 44] | 0.00011 µM
C=CC(=O)Nc1cccc(Nc2ncnc3[nH]c(C#Cc4ccsc4)cc23)c1 [Example 104] | 0.006 µM
C=CC(=O)N1CC[C@@H](Nc2ncnc3[nH]c(C#CC4CCCCC4)cc23)C1 [Example 78] | 0.702 µM
C=CC(=O)N1CC[C@@H](Nc2ncnc3[nH]c(C#Cc4ccc(F)cc4)cc23)C1 [Example 62] | 0.052 µM
C=CC(=O)N1CC[C@@H](Nc2ncnc3[nH]c(C#Cc4ccc(Cl)cc4)cc23)C1 [Example 63] | 0.0048 µM
C=CC(=O)N1CC[C@@H](Nc2ncnc3[nH]c(C#Cc4cccc(F)c4)cc23)C1 [Example 61] | 0.121 µM
C=CC(=O)N1CC[C@@H](Nc2ncnc3[nH]c(C#Cc4ccc5sccc5c4)cc23)C1 [Example 73] | 0.0001 µM
C=CC(=O)N1CC[C@@H](Nc2ncnc3[nH]c(C#Cc4ccccc4)cc23)C1 [Example 50] | 0.011 µM
C=CC(=O)N1CC[C@@H](Nc2ncnc3[nH]c(C#Cc4cnn(C)c4)cc23)C1 [Example 80] | 0.255 µM

----------
Tested on: TMD-8 cells
EXPERIMENT_SUMMARY: Cell proliferation assay (CellTiter-Glo), TMD-8 cells
Assay type: cell-based
ASSAY_CONDITIONS: Homo sapiens, TMD8, 120 h, 5-day treatment, read-out: TMD8 cell growth (GI50 μM)

COMPOUND | GI50 (µM)
C=CC(=O)N1CC[C@@H](Nc2ncnc3[nH]c(C#Cc4cccc(OC(F)(F)F)c4)cc23)C1 [Example 65] | 0.0027
COc1ccc(OCC#Cc2nc3c(NC4CCN(C(=O)/C=C/CN(C)C)C4)ncnc3[nH]2)cc1 (stereo not drawn) [Example 30] | 1.2
C=CC(=O)N1CC[C@@H](Nc2ncnc3[nH]c(C#CCOc4cccc5sccc45)cc23)C1 [Example 89] | 0.006
C#CC(=O)N1CC[C@@H](Nc2ncnc3[nH]c(C#CCOc4ccccc4F)cc23)C1 [Example 85] | 0.091
CN(C)C/C=C/C(=O)N1CC[C@@H](Nc2ncnc3[nH]c(C#Cc4cccc(Cl)c4)cc23)C1 [Example 58] | 0.171
C=CC(=O)N1CC[C@@H](Nc2ncnc3[nH]c(C#CCOc4ccccc4OC(F)(F)F)cc23)C1 [Example 81] | 0.003

----------
Tested on: TMD-8 cells
EXPERIMENT_SUMMARY: Cell proliferation assay (CellTiter-Glo), TMD-8 cells
Assay type: cell-based
ASSAY_CONDITIONS: Homo sapiens, TMD8, 120 h, 5-day treatment, read-out: TMD8 cell growth (GI50 μM)
Kindly apply the following: MET if GI50 is less than 0.02 µM, NOT MET in every other case.

MOLECULE | CLASS_ASSIGNMENT
C=CC(=O)N1CC[C@@H](Nc2ncnc3[nH]c(C#Cc4ccc(OC)cc4)cc23)C1 | MET
C=CC(=O)N1CCC(Nc2ncnc3[nH]c(C#CCOc4ccccc4)nc23)C1 (centres unmarked) | MET
C=CC(=O)N1CCC(Nc2ncnc3[nH]c(C#CCOc4cccc(F)c4)nc23)C1 (centres unmarked) | MET
C=CC(=O)N1CC[C@@H](Nc2ncnc3[nH]c(C#CCOc4ccccc4F)nc23)C1 | MET
O=C(/C=C/CN1CCOCC1)N1CCC(Nc2ncnc3[nH]c(C#CCOc4ccccc4)nc23)C1 (centres unmarked) | NOT MET

----------
ASSAY_SYSTEM: Btk (Homo sapiens)
Construct: purchased Promega (Madison, Wis.)
EXPERIMENT_SUMMARY: Btk kinase assay (ADP-Glo)
Assay type: biochemical
ASSAY_CONDITIONS: ADP-Glo Btk kinase assay kit; ATP 1.2 μM; 60 minutes at room temperature
MEASURED_METRIC: log10 of IC50 (log10 of the value in nM)

MOLECULE | log10 of IC50
CN(C)C/C=C/C(=O)N1CCC(Nc2ncnc3[nH]c(C#CCOc4ccccc4)nc23)C1 (centres unmarked) | -1.00
CN(C)C/C=C/C(=O)N1CCC(Nc2ncnc3[nH]c(C#CCOc4ccccc4)cc23)C1 (centres unmarked) | -0.52
C=CC(=O)N1CCC(Nc2ncnc3[nH]c(C#CCOc4cccc(F)c4)nc23)C1 (centres unmarked) | 1.17
O=C(/C=C/CN1CCOCC1)N1CCN(c2ncnc3[nH]c(C#CCOc4ccccc4)nc23)CC1 | 2.52
C=CC(=O)N1CCC(Nc2ncnc3[nH]c(C#CCOc4ccc(OC)cc4)nc23)C1 (centres unmarked) | 1.20
C=CC(=O)N1CCC[C@@H](Nc2ncnc3[nH]c(C#Cc4ccccc4)cc23)C1 | 1.15
CNC/C=C/C(=O)N1CCC(Nc2ncnc3[nH]c(C#CCOc4ccccc4)cc23)C1 (centres unmarked) | -0.40
CN(C)C/C=C/C(=O)N1CCN(c2ncnc3[nH]c(C#CCOc4ccccc4)nc23)CC1 | 0.48
C=CC(=O)N1CCC(Nc2ncnc3[nH]c(C#CCOc4ccc(F)cc4F)nc23)C1 (centres unmarked) | 0.00
C#CC(=O)N1CC[C@@H](Nc2ncnc3[nH]c(C#CCOc4ccccc4F)cc23)C1 | 0.85
